Target: T1, chimeric human/murine CD3E - murine CD3D Fc-tagged heterodimer (Mus musculus CD3E/D with human CD3E …, UniProt P07766;P22646;P04235, chimera)
T1 construct: CD3 epsilon, mouse, with a 5-residue N-terminal stretch replaced by an 11-residue stretch of human CD3E; CD3 delta, mouse; also called Chimeric human/murine CD3E/D; h/mCD3E-mCD3D; source: Expi293, transiently co-expressed, purified (MabSelect Sure LX, Superdex 200)
T1 sequence (P22646 22-189, stated change not applied, chain 1 of 2): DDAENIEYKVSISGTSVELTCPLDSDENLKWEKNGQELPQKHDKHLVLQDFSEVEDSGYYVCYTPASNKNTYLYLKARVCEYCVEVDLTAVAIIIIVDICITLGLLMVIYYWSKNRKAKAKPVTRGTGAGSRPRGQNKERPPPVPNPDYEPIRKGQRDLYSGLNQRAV
T1 sequence (P04235 22-173, stated change not applied, chain 2 of 2): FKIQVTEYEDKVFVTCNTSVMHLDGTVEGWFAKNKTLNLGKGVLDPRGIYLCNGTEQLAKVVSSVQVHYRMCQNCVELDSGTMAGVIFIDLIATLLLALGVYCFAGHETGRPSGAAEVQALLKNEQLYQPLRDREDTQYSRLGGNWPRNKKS
Assay: SPR; Fc-tagged CD3E/D variants captured on a C1 chip by amine-coupled anti-human Fc or anti-murine Fc pAb; concentration series of Fab; HBS pH 7.4, 0.05% Tween-20, 1 g/L BSA, 37 °C; 1:1 Langmuir model with mass transport
Details: both partners purified
pKd: −log10 of the molar value.

- binder: "hCD3.1 Fab (Fab, V domains shown, VH of hCD3.1; CH1 of the Fab; VL of hCD3.1; CL of the Fab; Anti-human CD3 arm of a clinical T-cell engager; cloned in pTT5 with an N-terminal osteonectin signal peptide; source: Expi293, transient, purified (Ni Sepharose excel, Superdex 200)) VH: EVQLVESGGGLVQPGGSLRLSCAASGFTFSDYYMTWVRQAPGKGLEWVAFIRNRARGYTSDHNPSVKGRFTISRDNAKNSLYLQMNSLRAEDTAVYYCARDRPSYYVLDYWGQGTTVTVSS VL: DIVMTQSPDSLAVSLGERATINCKSSQSLFNVRSRKNYLAWYQQKPGQPPKLLISWASTRESGVPDRFSGSGSGTDFTLTISSLQAEDVAVYYCKQSYDLFTFGSGTKLEIK"
  pKd: 8.07
- binder: "SP34 Fab (Fab, V domains shown, VH of SP34; CH1 of the Fab; VL of SP34; CL of the Fab; Cyno cross-reactive anti-human CD3 clone; cloned in pTT5 with an N-terminal osteonectin signal peptide; source: Expi293, transient, purified (Ni Sepharose excel, Superdex 200)) VH: EVQLVESGGGLVQPKGSLKLSCAASGFTFNTYAMNWVRQAPGKGLEWVARIRSKYNNYATYYADSVKDRFTISRDDSQSILYLQMNNLKTEDTAMYYCVRHGNFGNSYVSWFAYWGQGTLVTVSA VL: QAVVTQESALTTSPGETVTLTCRSSTGAVTTSNYANWVQEKPDHLFTGLIGGTNKRAPGVPARFSGSLIGDKAALTITGAQTEDEAIYCALWYSNLWVFGGGTKLTVL"
  pKd: 8.14
- binder: "2C11 Fab (Fab, V domains shown, VH of 2C11; CH1 of the Fab; VL of 2C11; CL of the Fab; Murine surrogate anti-CD3 clone; cloned in pTT5 with an N-terminal osteonectin signal peptide; also called m2C11; source: Expi293, transient, purified (Ni Sepharose excel, Superdex 200)) VH: EVQLVESGGGLVQPGKSLKLSCEASGFTFSGYGMHWVRQAPGRGLESVAYITSSSINIKYADAVKGRFTVSRDNAKNLLFLQMNILKSEDTAMYYCARFDWDKNYWGQGTMVTVSS VL: DIQMTQSPSSLPASLGDRVTINCQASQDISNYLNWYQQKPGKAPKLLIYYTNKLADGVPSRFSGSGSGRDSSFTISSLESEDIGSYYCQQYYNYPWTFGPGTKLEIK"
  pKd: 6.60
- binder: "hCD3.2 Fab (Fab, V domains shown, VH of hCD3.2; CH1 of the Fab; VL of hCD3.2; CL of the Fab; Anti-human CD3 arm of a clinical T-cell engager; cloned in pTT5 with an N-terminal osteonectin signal peptide; source: Expi293, transient, purified (Ni Sepharose excel, Superdex 200)) VH: EVQLVESGGGLVQPGGSLRLSCAASGFTFNTYAMNWVRQAPGKGLEWVARIRSKYNNYATYYAASVKGRFTISRDDSKNSLYLQMNSLKTEDTAVYYCARHGNFGNSYVSWFAYWGQGTLVTVSS VL: QTVVTQEPSLTVSPGGTVTLTCRSSTGAVTTSNYANWVQQKPGQAPRGLIGGTNKRAPGTPARFSGSLLGGKAALTLSGVQPEDEAEYYCALWYSNLWVFGGGTKLTVL"
  pKd: 8.38
- binder: "hCD3.4 Fab (Fab, V domains shown, VH of hCD3.4; CH1 of the Fab; VL of hCD3.4; CL of the Fab; Anti-human CD3 arm of a clinical T-cell engager; cloned in pTT5 with an N-terminal osteonectin signal peptide; source: Expi293, transient, purified (Ni Sepharose excel, Superdex 200)) VH: QVQLVQSGAEVKKPGASVKVSCKASGFNIKDYYMHWVRQAPGQRLEWMGWIDLENGNTIYDPKFQGRVTITRDTSASTAYMELSSLRSEDTAVYYCARDGYGRYFYDVWGQGTLVTVSS VL: DIVMTQSPDSLAVSLGERATINCKSSQSLLNSRTGKNYLAWYQQKPGQPPKLLIYWASTRESGVPDRFSGSGSGTDFTLTISSLQAEDVAVYYCKQSYSRRTFGGGTKVEIK"
  pKd: 8.51
